Below, each entry is listed with its recorded MIC.
System: amphotericin B-resistant C. albicans (ARCA, ATCC 90873)
measurement.description: Antifungal MIC assay, amphotericin B-resistant C. albicans
Type: cell-based
conditions.used: Candida albicans, ATCC90873; MIC90; values expressed as 95% confidence interval; read-out: Minimal inhibitory concentration, ARCA

A selection of reference data follows.
What the record says about O=c1oc2c(O)cc(Oc3ccc(Oc4ccc(Oc5ccc(Oc6ccc(Oc7ccc(Oc8ccc(Oc9ccc(Oc%10ccc(Oc%11ccc(Oc%12ccc(Oc%13ccc(-c%14ccc(O)c(O)c%14)cc%13O)cc%12O)cc%11O)cc%10O)cc9O)cc8O)cc7O)cc6O)cc5O)cc4O)cc3O)cc2c2cc(O)c(O)cc12 : MIC is > 50 µg/mL

What the record says about O=c1oc2c(O)cc(Oc3ccc(Oc4ccc(Oc5ccc(Oc6ccc(Oc7ccc(Oc8ccc(Oc9ccc(-c%10ccc(O)c(O)c%10)cc9O)cc8O)cc7O)cc6O)cc5O)cc4O)cc3O)cc2c2cc(O)c(O)cc12 : MIC is > 50 µg/mL

Then this compound:
What the record says about O=c1oc2cc(O)c(O)cc2c2cc(O)c(O)cc12 : MIC is > 50 µg/mL
